- Tested on: Haemophilus influenzae
- METHOD DESCRIPTION: Antimicrobial activity against Haemophilus influenzae ATCC 31517 MMSA
- Assay type: functional
OUTCOME MEASURE: MIC

In: Look at this compound and give its reported MIC. CCOC(=O)[C@]12CO[C@H](C(C)(C)C)N1C(=O)/C(=C(\C)N1CCN(C3CCCCC3)CC1)C2=O
Out: > 32 µg/mL

In: Proceed to O=C1CNC(=O)/C1=C(\NCc1ccccc1)c1cccc2ccccc12
Out: > 32 µg/mL

In: Proceed to CCCCCCCCCCCCC/C(Nc1ccccc1)=C1\C(=O)CNC1=O
Out: > 32 µg/mL

In: Proceed to C/C(NCCOc1ccccc1)=C1/C(=O)[C@@H]2CCCC(=O)N2C1=O
Out: > 32 µg/mL

In: Proceed to CCCC(=O)N1CC(=O)/C(=C(\CC23CC4CC(C)(CC(C)(C4)C2)C3)NCCCN2CCOCC2)C1=O
Out: > 64 µg/mL
